# System: RXRa homodimer (NR concentration 180 nM)
# procedure-summary: PBM binding z-score (relative to random genomic background probes); higher = stronger binding; sequences stand for … in GC…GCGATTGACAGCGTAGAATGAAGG
Category | rule: reported PBM binding z-score within range, see category 1: < 0.9; category 2: ≥ 0.9 and < 3; category 3: ≥ 3

1) CCAACTAGGTCACCAGGACAGTGAAGAGGTTGGA : category 3

Read the next record carefully.
Kindly identify the class of "ATCTCTAGGTAAATGTTCAGTGAATCCCGAGGAT" .
category 1

----------
# Tested on: PPARg:RXRa DBDmut IVT, anti-RXR (DBD mutation: RXRa K156A/R161A, NR concentration 270 nM, RXRa partner concentration 90 nM)
# procedure-summary: PBM binding z-score (relative to random genomic background probes); higher = stronger binding; sequences stand for … in GC…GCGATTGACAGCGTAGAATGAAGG
endpoint-label: PBM binding z-score

// below: answered sequences
1. CCTACTGGGCGACGAAAGGTCATTGATTCAGTGA : 1.64
2. CGTCCAAGGTCAGTGAGGTCAGTGAATGCCGAGT : 3.14
3. CGTCCAAGGGCAGCAGGTCAGTGAAAGCGACGTG : 0.8
4. CAATCTAGGTCACGAAAGGTCAAAGTCGAATGAC : 8.53
5. CGTCGAAGGTCAATGCTAGGTCAGTGAAAGCATT : 2.56

Per the record, "ATATGTAGGTTAGCGTCATTCAGAAAGTAGGGAA" has PBM binding z-score of 6.57

----------
# Test system: VDR homodimer (NR concentration 270 nM)
# procedure-summary: PBM binding z-score (relative to random genomic background probes); higher = stronger binding; sequences stand for … in GC…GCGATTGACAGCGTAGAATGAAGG
endpoint-label: PBM binding z-score
Give the figure by itself; no unit, no explanation.

Per the record, "CTATGTAGGTTAAGGGTGTCATTCAGTTTGAAAG" has PBM binding z-score of 1.42

Per the record, "CGAACTAGGTCACCACGACAGTGAAGAGGTTGGA" has PBM binding z-score of 0.592

Per the record, "CCTACTGGGCCAAAGGACATTGATTCCAATGCTC" has PBM binding z-score of -0.13

Per the record, "CGTCCAAGGTAAATGCTAGGTCAGTGAAAGCATT" has PBM binding z-score of -0.194

Per the record, "ATCGAAAGGTCGTGAAGTGAGTATACAGAAAGGC" has PBM binding z-score of 1.02

Per the record, "GATACAGGGTCATCTAGAGGCCAGAGTATGGAAA" has PBM binding z-score of 2.85

Per the record, "ATATGTAGGTTAGGGTCATTGAGAAAGTAGGGAA" has PBM binding z-score of 3.55

Per the record, "ATCTGTAGGTTATCGGGTCATTCAGTTTGCGCAT" has PBM binding z-score of 3.95

Per the record, "CGTCGGAGGACAGAAGGTCAGAGCTGTCCGCTTT" has PBM binding z-score of 0.136

----------
# Test system: RARa homodimer (NR concentration 270 nM)
# procedure-summary: PBM binding z-score (relative to random genomic background probes); higher = stronger binding; sequences stand for … in GC…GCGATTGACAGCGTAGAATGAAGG
Classification field: enter rule met for PBM binding z-score values not below 0.07, rule not met for values below it.

Some solved entries appear below for comparison.
1) CTCGAAAGGTCGAGCTCAGGTGAGTATACCAAAC : rule met
2) CCCGCTAGGTCATGGTCAGCTAATCTACAGTATG : rule met
3) CGAACTAGTTCACCAGGACAGTGAAGAGGTTGGA : rule not met
4) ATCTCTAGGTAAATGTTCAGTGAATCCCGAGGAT : rule met

Given "CCGAGTAGGTTACGAGGGGGCACTCAGTGCGAAT" , state whether its PBM binding z-score is at least 0.07.
rule met

Given "CGAACTAGGTCAAAGGACAGTGCAAGGCGACGTA" , state whether its PBM binding z-score is at least 0.07.
rule not met

Given "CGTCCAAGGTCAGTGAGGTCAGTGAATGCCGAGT" , state whether its PBM binding z-score is at least 0.07.
rule met

Given "CGAACTAGCTCAAAGGACAGTGAAAGGCGACGTA" , state whether its PBM binding z-score is at least 0.07.
rule met

Given "AGTAAAAGTTCACTAGGTAACGTAAGATTCAGCT" , state whether its PBM binding z-score is at least 0.07.
rule met

Given "CGGACTAGGTCACCAGGACAGTGAAGAGGTTGGA" , state whether its PBM binding z-score is at least 0.07.
rule not met
